Numbers sourced from ChEMBL document CHEMBL1137364.

biological target: P2Y purinoceptor 4 (Homo sapiens, UniProt P51582); test: Agonist activity at human P2Y4 receptor expressed in 1321N1 cells assessed as IP accumulation by SPA at 100 uM; type: functional, cell-based
Sequence (P51582 whole entry): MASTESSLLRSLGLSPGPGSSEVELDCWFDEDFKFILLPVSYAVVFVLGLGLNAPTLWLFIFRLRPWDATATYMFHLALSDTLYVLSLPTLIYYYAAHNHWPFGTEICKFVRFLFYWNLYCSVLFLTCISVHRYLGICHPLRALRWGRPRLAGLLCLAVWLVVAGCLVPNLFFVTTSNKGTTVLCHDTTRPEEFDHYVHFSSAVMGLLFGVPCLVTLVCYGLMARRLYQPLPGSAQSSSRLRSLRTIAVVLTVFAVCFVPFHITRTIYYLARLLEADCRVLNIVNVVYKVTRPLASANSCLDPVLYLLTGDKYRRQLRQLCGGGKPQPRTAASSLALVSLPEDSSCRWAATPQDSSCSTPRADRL
endpoint: Activity (%)

(a) Cc1cc(=O)n([C@@H]2O[C@H](COP(=O)(O)O)[C@@H](O)[C@H]2O)c(=O)[nH]1
(b) O=C(Cn1c(=O)ccn([C@@H]2O[C@H](COP(=O)(O)OP(=O)(O)OP(=O)(O)O)[C@@H](O)[C@H]2O)c1=O)c1ccccc1
(c) O=c1cc(O)n([C@@H]2O[C@H](COP(=O)(O)O)[C@@H](O)[C@H]2O)c(=O)[nH]1
(d) O=C(Cn1c(=O)ccn([C@@H]2O[C@H](COP(=O)(O)OP(=O)(O)OP(=O)(O)O)[C@@H](O)[C@H]2OP(=O)(O)O)c1=O)c1ccccc1
**Query** Quick favor: sort the compounds up above by Activity, largest first. List the labels in the requested order.
**Result** b, c, a, d

###

target: P2Y purinoceptor 6 (Homo sapiens); test: Agonist activity at human P2Y6 receptor expressed in 1321N1 cells assessed as IP accumulation by SPA at 1 uM; type: functional, cell-based
endpoint: Activity (%)

Take a look at these entries with their results.
Cc1cc(=O)n([C@@H]2O[C@H](COP(=O)(O)OP(=O)(O)OP(=O)(O)O)[C@@H](O)[C@H]2O)c(=O)[nH]1    0
Cc1cc(=O)n([C@@H]2O[C@H](COP(=O)(O)OP(=O)(O)O)[C@@H](O)[C@H]2O)c(=O)[nH]1    0
O=c1cc(O)n([C@@H]2O[C@H](COP(=O)(O)OP(=O)(O)OP(=O)(O)O)[C@@H](O)[C@H]2O)c(=O)[nH]1    0

(P) O=C(Cn1c(=O)ccn([C@@H]2O[C@H](COP(=O)(O)OP(=O)(O)OP(=O)(O)O)[C@@H](O)[C@H]2OP(=O)(O)O)c1=O)c1ccccc1
(Q) Cn1c(=O)ccn([C@@H]2O[C@H](COP(=O)(O)OP(=O)(O)O)[C@@H](O)[C@H]2O)c1=O
(R) Cn1c(=O)ccn([C@@H]2O[C@H](COP(=O)(O)OP(=O)(O)OP(=O)(O)O)[C@@H](O)[C@H]2O)c1=O
(S) O=C(Cn1c(=O)ccn([C@@H]2O[C@H](COP(=O)(O)OP(=O)(O)OP(=O)(O)O)[C@@H](O)[C@H]2O)c1=O)c1ccccc1
**Query** Arrange these molecules by their Activity, starting with the largest number. List the labels in the requested order.
**Result** S, Q, R, P

###

target: P2Y purinoceptor 6 (Homo sapiens, UniProt Q15077); assay: Agonist activity at human P2Y6 receptor expressed in 1321N1 cells assessed as IP accumulation by SPA at 100 uM; assay type: functional, cell-based
Sequence (Q15077 whole entry): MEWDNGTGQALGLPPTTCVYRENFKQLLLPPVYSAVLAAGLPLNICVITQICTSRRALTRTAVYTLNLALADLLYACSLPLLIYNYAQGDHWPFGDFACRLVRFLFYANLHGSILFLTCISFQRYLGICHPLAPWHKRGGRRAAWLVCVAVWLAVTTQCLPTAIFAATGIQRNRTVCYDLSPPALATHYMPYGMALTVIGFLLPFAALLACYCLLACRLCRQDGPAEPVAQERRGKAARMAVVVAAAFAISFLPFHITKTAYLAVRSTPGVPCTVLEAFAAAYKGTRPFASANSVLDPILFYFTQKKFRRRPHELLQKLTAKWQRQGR
endpoint: Activity (%)

O=c1cc(O)n([C@@H]2O[C@H](COP(=O)(O)O)[C@@H](O)[C@H]2O)c(=O)[nH]1    0

(a) Cc1cc(=O)n([C@@H]2O[C@H](COP(=O)(O)O)[C@@H](O)[C@H]2O)c(=O)[nH]1
(b) O=c1[nH]c(=O)n([C@@H]2O[C@H](COP(=O)(O)O)[C@@H](O)[C@H]2O)cc1Br
**Query** Lower value for measured Activity? Options: a , b Indicate which entry you chose by stating its label.
**Result** a
(a: 2%, b: 124%)

###

molecular target: P2Y purinoceptor 4 (Homo sapiens); assay: Agonist activity at human P2Y4 receptor expressed in 1321N1 cells assessed as IP accumulation by SPA at 1 uM; type: functional, cell-based
endpoint: Activity (%)

(a) O=c1ccn([C@@H]2O[C@H](COP(=O)(O)OP(=O)(O)O)[C@@H](O)[C@H]2O)c(=S)[nH]1
(b) O=c1cc(O)n([C@@H]2O[C@H](COP(=O)(O)OP(=O)(O)OP(=O)(O)O)[C@@H](O)[C@H]2O)c(=O)[nH]1
**Query** Param pair: a , b . Output: the one whose Activity is numerically greater. Indicate which entry you chose by stating its label.
**Result** a

###

target: P2Y purinoceptor 2 (Homo sapiens); test: Agonist activity at human P2Y2 receptor expressed in 1321N1 cells assessed as IP accumulation by SPA at 1 uM; assay type: functional, cell-based
endpoint: Activity (%)

CCCc1cc(=O)n([C@@H]2O[C@H](COP(=O)(O)OP(=O)(O)OP(=O)(O)O)[C@H]3OP(=O)(O)O[C@H]32)c(=O)[nH]1    24
Cc1cc(=O)n([C@@H]2O[C@H](COP(=O)(O)OP(=O)(O)OP(=O)(O)O)[C@@H](O)[C@H]2O)c(=O)[nH]1    18
O=C(Cn1c(=O)ccn([C@@H]2O[C@H](COP(=O)(O)OP(=O)(O)O)[C@@H](O)[C@H]2O)c1=O)c1ccccc1    22

(1) Cc1cc(=O)n([C@@H]2O[C@H](COP(=O)(O)OP(=O)(O)O)[C@@H](O)[C@H]2O)c(=O)[nH]1
(2) O=c1ccn([C@@H]2O[C@H](COP(=O)(O)OP(=O)(O)O)[C@@H](O)[C@H]2O)c(=S)[nH]1
(3) Cn1c(=O)ccn([C@@H]2O[C@H](COP(=O)(O)OP(=O)(O)O)[C@@H](O)[C@H]2O)c1=O
(4) Cn1c(=O)ccn([C@@H]2O[C@H](COP(=O)(O)O)[C@@H](O)[C@H]2O)c1=O
**Query** Arrange these molecules by their Activity, starting with the largest number. List the labels in the requested order.
**Result** 2, 1, 3, 4
(2: 42%, 1: 25%, 3: 10%, 4: 3%)

###

molecular target: P2Y purinoceptor 2 (Homo sapiens, UniProt P41231); assay: Antagonist activity at human P2Y2 receptor assessed as inhibition of UTP-induced IP accumulation at 100 uM; type: functional
Sequence (P41231 whole entry): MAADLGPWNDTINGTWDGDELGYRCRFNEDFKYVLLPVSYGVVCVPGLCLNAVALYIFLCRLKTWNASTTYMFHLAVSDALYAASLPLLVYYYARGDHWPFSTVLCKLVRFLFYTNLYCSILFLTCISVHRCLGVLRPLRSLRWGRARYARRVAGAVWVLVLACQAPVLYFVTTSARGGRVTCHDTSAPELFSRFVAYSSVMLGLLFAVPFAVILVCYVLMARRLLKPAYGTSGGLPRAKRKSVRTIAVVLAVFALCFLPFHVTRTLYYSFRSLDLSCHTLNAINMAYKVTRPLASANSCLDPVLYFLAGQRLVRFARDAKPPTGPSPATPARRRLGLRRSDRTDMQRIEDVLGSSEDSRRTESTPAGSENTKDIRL
Activity calls are given as the source filed them. The rule behind the calls is not given here.
endpoint: Activity

O=C(Cn1c(=O)ccn([C@@H]2O[C@H](COP(=O)(O)O)[C@@H](O)[C@H]2O)c1=O)c1ccccc1    inactive
O=c1cc(O)n([C@@H]2O[C@H](COP(=O)(O)OP(=O)(O)OP(=O)(O)O)[C@@H](O)[C@H]2O)c(=O)[nH]1    inactive
CCCc1cc(=O)n([C@@H]2O[C@H](COP(=O)(O)OP(=O)(O)OP(=O)(O)O)[C@@H](O)[C@H]2O)c(=O)[nH]1    inactive
Cc1cc(=O)n([C@@H]2O[C@H](COP(=O)(O)OP(=O)(O)OP(=O)(O)O)[C@@H](O)[C@H]2O)c(=O)[nH]1    inactive

###

target: P2Y purinoceptor 6 (Homo sapiens); test: Agonist activity at human P2Y6 receptor expressed in 1321N1 cells assessed as IP accumulation by SPA; format: functional, cell-based
Quick reference: EC50 of the listed items.

Take a look at these entries with their results.
O=c1ccn([C@@H]2O[C@H](COP(=O)(O)OP(=O)(O)O)[C@@H](O)[C@H]2O)c(=S)[nH]1    239 nM
O=C(Cn1c(=O)ccn([C@@H]2O[C@H](COP(=O)(O)O)[C@@H](O)[C@H]2O)c1=O)c1ccccc1    > 100000 nM
O=c1ccn([C@@H]2O[C@H](COP(=O)(O)OP(=O)(O)O)[C@@H](O)[C@H]2O)c(=O)[nH]1 [URIDINE_DIPHOSPHATE]    42 nM
O=c1ccn([C@@H]2O[C@H](COP(=O)(O)O)[C@@H](O)[C@H]2O)c(=S)[nH]1    > 100000 nM
Cc1cc(=O)n([C@@H]2O[C@H](COP(=O)(O)O)[C@@H](O)[C@H]2O)c(=O)[nH]1    > 100000 nM
O=c1cc(O)n([C@@H]2O[C@H](COP(=O)(O)OP(=O)(O)OP(=O)(O)O)[C@@H](O)[C@H]2O)c(=O)[nH]1    > 100000 nM
CCCc1cc(=O)n([C@@H]2O[C@H](COP(=O)(O)OP(=O)(O)O)[C@@H](O)[C@H]2O)c(=O)[nH]1    > 1000 nM

**Query** Find the recorded EC50 belonging to `Cn1c(=O)ccn([C@@H]2O[C@H](COP(=O)(O)OP(=O)(O)O)[C@@H](O)[C@H]2O)c1=O` and report it.
**Result** > 1000 nM

###

biological target: P2Y purinoceptor 2 (Homo sapiens); test: Agonist activity at human P2Y2 receptor expressed in 1321N1 cells assessed as IP accumulation by SPA
endpoint: EC50

O=C(Cn1c(=O)ccn([C@@H]2O[C@H](COP(=O)(O)O)[C@@H](O)[C@H]2O)c1=O)c1ccccc1    > 100000 nM
O=C(Cn1c(=O)ccn([C@@H]2O[C@H](COP(=O)(O)OP(=O)(O)O)[C@@H](O)[C@H]2O)c1=O)c1ccccc1    > 1000 nM
O=c1ccn([C@@H]2O[C@H](COP(=O)(O)O)[C@@H](O)[C@H]2O)c(=S)[nH]1    ≥ 100000 nM
CCCc1cc(=O)n([C@@H]2O[C@H](COP(=O)(O)OP(=O)(O)OP(=O)(O)O)[C@H]3OP(=O)(O)O[C@H]32)c(=O)[nH]1    > 1000 nM
Cn1c(=O)ccn([C@@H]2O[C@H](COP(=O)(O)OP(=O)(O)OP(=O)(O)O)[C@@H](O)[C@H]2O)c1=O    564 nM

**Query** Find the recorded EC50 belonging to `O=C(Cn1c(=O)ccn([C@@H]2O[C@H](COP(=O)(O)OP(=O)(O)OP(=O)(O)O)[C@@H](O)[C@H]2O)c1=O)c1ccccc1` and report it.
**Result** > 1000 nM

**Query** Find the recorded EC50 belonging to `O=c1ccn([C@@H]2O[C@H](COP(=O)(O)OP(=O)(O)O)[C@@H](O)[C@H]2O)c(=S)[nH]1` and report it.
**Result** > 1000 nM
